B1: CPEB3 Ribozyme (parent)
chain: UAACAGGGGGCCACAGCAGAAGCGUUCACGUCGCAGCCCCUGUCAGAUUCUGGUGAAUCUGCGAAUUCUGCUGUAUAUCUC

Variants of: B1
Test: self-cleavage, relative activity (ratio to wild type); higher = more cleavage; in vitro, sequencing
propertyName: self-cleavage
Format: numeric value only, no unit, no commentary.

Solved entries:
| variantAnnotation | propertyName | endpointResult |
| --- | --- | --- |
| A13U C23G | self-cleavage | 0.17 |
| U1C A47U | self-cleavage | 0.47 |
| A47U U78A | self-cleavage | 0.7 |
| G24C U67A | self-cleavage | 0.21 |
| U41A A45U | self-cleavage | 0.2 |
| A28U A57U | self-cleavage | 0.5 |
| A18C G33U | self-cleavage | 0.13 |
| G10C U58C | self-cleavage | 0.19 |

Recorded result, U31C C79A , self-cleavage: 0.94

Recorded result, A45U A64G , self-cleavage: 0.33

Recorded result, U51A U72A , self-cleavage: 0.69

Recorded result, G7A A45U , self-cleavage: 0.16

Recorded result, A5U G10C , self-cleavage: 0.5

Recorded result, A45U U69A , self-cleavage: 0.31

Recorded result, G24C A75U , self-cleavage: 0.33

Recorded result, C50A U51C , self-cleavage: 0.93
